Source listed as patent US20200283478A1.

TARGET: T1, proprotein convertase subtilisin/kexin type 9 (PCSK9) (human, UniProt Q8NBP7 31-692)
T1 construct: His-tagged full-length PCSK9 in TR-FRET and SPR, biotinylated in phage ELISA; secreted protein is autoprocessed (prodomain plus catalytic/CRD chain starting at S153); also called rec.PCSK9; His-PCSK9
T1 sequence (Q8NBP7 other isoform, or with tags, fused parts or gaps limits assumed): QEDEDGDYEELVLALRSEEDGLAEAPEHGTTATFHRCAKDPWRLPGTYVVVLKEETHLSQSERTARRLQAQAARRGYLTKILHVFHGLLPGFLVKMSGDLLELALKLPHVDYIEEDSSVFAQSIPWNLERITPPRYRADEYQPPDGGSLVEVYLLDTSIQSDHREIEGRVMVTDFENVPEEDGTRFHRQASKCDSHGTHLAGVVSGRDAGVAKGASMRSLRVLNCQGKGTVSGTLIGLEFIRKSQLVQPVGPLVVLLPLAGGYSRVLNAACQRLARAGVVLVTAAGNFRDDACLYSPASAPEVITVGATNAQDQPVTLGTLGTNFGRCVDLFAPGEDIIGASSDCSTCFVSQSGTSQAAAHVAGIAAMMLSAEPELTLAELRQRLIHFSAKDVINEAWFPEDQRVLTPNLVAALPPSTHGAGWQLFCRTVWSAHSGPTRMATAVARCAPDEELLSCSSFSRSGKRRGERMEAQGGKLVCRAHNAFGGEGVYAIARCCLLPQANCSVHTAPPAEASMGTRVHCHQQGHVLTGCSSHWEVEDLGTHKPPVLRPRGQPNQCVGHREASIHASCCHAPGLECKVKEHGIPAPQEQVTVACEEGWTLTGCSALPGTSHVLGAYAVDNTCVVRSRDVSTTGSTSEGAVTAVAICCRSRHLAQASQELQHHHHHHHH
MEASUREMENT_NOTES: phage spot ELISA;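 also: phage clones bound to PCSK9 or PCSK9Δhelix by ELISA, noise being the same phage on NeutrAvidin, positive when signal above 0.4 and signal:noise above 2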
RECORDED_ENDPOINT: ELISA

> print(dat)
                                     binder  measured
1  TAFTSWEEYLDWVGSGPLLWNLQKVH [SEQ ID NO 310]      2.75
2  TAFTSWEEYLDWVGSGKLWNLTRISS [SEQ ID NO 312]      2.87
3  TAFTSWEEYLDWVGSGCPFYDWRCSDFS [SEQ ID NO 328]       2.8
4  TAFTSWEEYLDWVGSGEHQFYSYRGVDVYR [SEQ ID NO 324]      2.55
5  TAFTSWEEYLDWVGSGMVYVDRGVRVFT [SEQ ID NO 322]      2.82
6  TAFTSWEEYLDWVGSGEDVVCYGRVDYMPLCV [SEQ ID NO 330]      2.67
7  TAFTSWEEYLDWVGSGVPWNLAKI [SEQ ID NO 315]      2.69
